- study.system: human STAT6 (Homo sapiens (Human), UniProt P42226)
- Sequence (P42226 122-658): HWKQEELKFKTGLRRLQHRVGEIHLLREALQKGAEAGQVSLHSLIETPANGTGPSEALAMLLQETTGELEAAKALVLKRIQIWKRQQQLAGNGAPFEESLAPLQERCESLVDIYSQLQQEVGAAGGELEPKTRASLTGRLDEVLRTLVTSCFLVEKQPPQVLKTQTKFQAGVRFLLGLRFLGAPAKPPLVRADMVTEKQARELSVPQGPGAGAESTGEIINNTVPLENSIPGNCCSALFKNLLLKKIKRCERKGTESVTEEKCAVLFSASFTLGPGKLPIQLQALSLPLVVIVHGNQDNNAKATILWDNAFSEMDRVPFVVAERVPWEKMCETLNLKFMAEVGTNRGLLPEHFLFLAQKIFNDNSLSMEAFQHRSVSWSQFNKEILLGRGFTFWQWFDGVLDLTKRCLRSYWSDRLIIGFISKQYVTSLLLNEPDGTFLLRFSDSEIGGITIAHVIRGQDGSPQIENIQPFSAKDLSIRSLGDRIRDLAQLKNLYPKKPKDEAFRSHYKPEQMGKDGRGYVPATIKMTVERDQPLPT
- assay.text: Surface plasmon resonance assay (Biacore 8K, binding to immobilized STAT6)
- study.conditions: human STAT6 aa122-658, N-terminal His-tag, CM5 chip, 25° C.; geometric mean; read-out: STAT6 SPR Kd
pKd: −log10 of the molar value.
test.readout: pKd

CNc1ccc(-c2ccnc3c2cc(CN2CCC(c4ccc(C(=O)N(C)C)cc4C)CC2)n3C)cn1
7.32

a = Cc1cc(C(=O)N(C)C)ccc1C1=CCN([C@@H](C)c2cc3c(-c4ccc(N)nc4C#N)ccnc3n2C)CC1
b = [2H]C([2H])([2H])N(C(=O)c1ccc(C2CCN([C@@H](C)c3cc4c(-c5ccc(N)cn5)ccnc4n3C)CC2)c(C)c1)C([2H])([2H])[2H]
Exam item: Lower pKd: a or b ? Field: selected label. Fill in the label of the entry you choose.
Marked response: b
(b: 5.48, a: 6.45)

* * *

Reported Kd, human STAT6 (Homo sapiens (Human), UniProt P42226).
test.readout: Kd (nM)

CNc1ccc(-c2ccnc3c2cc([C@@H](C)N2CCC(c4ccc(C(=O)N(C)C)cc4)CC2)n3C)cn1 (single isomer, unassigned) [Example 1af8]
14.6
[2H]C([2H])([2H])N(C(=O)c1ccc(C2=CCN(C(C)c3cc4c(-c5ccc(N)nc5C#N)ccnc4n3C)CC2)cc1)C([2H])([2H])[2H] (stereo in doubt) [Example 1af24]
51.3
CNc1ccc(-c2ccnc3c2cc(CN2CCC(c4ccc(C(=O)N(C)C)cn4)CC2)n3C)nn1 [Example 1p5]
148

P = [2H]C([2H])([2H])N(C(=O)c1ccc(C2CCN([C@@H](C)c3cc4c(-c5ccc(N)nc5C#N)ccnc4n3C)CC2)cc1)C([2H])([2H])[2H] [Example 1af29]
Q = CN(C)C(=O)c1ccc(C2CCN(Cc3cc4c(-c5ccc(N)nc5)ccnc4n3C)C(=O)C2)cc1 (single isomer, unassigned) [Example 1ae5]
R = C[C@H]1C[C@H](c2ccc(C(=O)N(C)C)cc2)CCN1Cc1cc2c(-c3ccc(N)cn3)ccnc2n1C (stereo in doubt) [Example 1q8]
Exam item: Sort low-to-high on Kd, please. Write the labels, ordered according to the request.
Marked response: Q, P, R
(Q: 46.4 nM, P: 645 nM, R: 3980 nM)

* * *

- System: Eotaxin-3 (CCL26) release in human whole blood stimulated with IL-4
- assay.text: Human whole blood eotaxin-3 assay (IL-4 stimulated, Eotaxin-3 release)
- Type: cell-based
- study.conditions: Homo sapiens, Hec50, 48 h
test.readout: EC50 (nM)

Cc1cc(C(=O)N(C)C)cc(F)c1C1=CCN(Cc2cc3c(-c4ccc(N)nn4)ccnc3n2C)CC1
37.8
[2H]C([2H])([2H])N(C(=O)c1cc(C)c(C2=CCN([C@@H](C)c3cc4c(-c5ccc(NC)nn5)ccnc4n3C)CC2)c(F)c1)C([2H])([2H])[2H]
39.5
C[C@H]1C[C@@H](c2ccc(C(=O)N(C)C)cc2)CCN1Cc1cc2c(-c3ccc(N)nc3C#N)ccnc2n1C (single isomer, unassigned)
651
CNc1ccc(-c2ccnc3c2cc(CN2CC=C(c4ccc(C(=O)N(C)C)cc4Cl)CC2)n3C)nn1
1710
CNc1ccc(-c2ccnc3c2cc(CN2CC=C(c4c(C)cc(C(=O)N(C)C)cc4C)CC2)n3C)cn1
205
[2H]C([2H])([2H])N(C(=O)c1ccc(C2CCN([C@@H](C)c3cc4c(-c5ccc(NCCO)nc5)ccnc4n3C)CC2)cc1)C([2H])([2H])[2H]
262
[2H]C([2H])([2H])N(C(=O)c1ccc([C@@H]2CCN(Cc3cc4c(-c5ccc(N)cn5)ccnc4n3C)[C@H](C)C2)cc1)C([2H])([2H])[2H]
167
CNc1ccc(-c2ccnc3c2cc([C@H](C)N2CC=C(c4c(C)cc(C(=O)N(C)C)cc4F)CC2)n3C)nc1
3290

P = CNc1ccc(-c2ccnc3c2cc([C@H](C)N2CCC(c4ccc(C(=O)N(C)C)cc4)CC2)n3C)nc1
Q = Cc1cc(C(=O)N(C)C)ccc1C1CCN([C@H](C)c2cc3c(-c4ccc(N)cn4)ccnc3n2C)CC1
R = CNc1ccc(-c2ccnc3c2cc(C(C)N2CC=C(c4c(C)cc(C(=O)N(C)C)cc4F)CC2)n3C)cn1 (stereo not shown)
S = CN(C)C(=O)c1ccc(C2CCN(Cc3cc4c(-c5ccc(N)cn5)ccnc4n3C)CC2)cc1
Exam item: Arrange by EC50, high to low. Write the labels, ordered according to the request.
Marked response: S, Q, P, R
(S: 6620 nM, Q: 2910 nM, P: 444 nM, R: 38.6 nM)
